Answer each item with its documented IC50.
molecular target: Recombinant human TPH1 (MBP tagged) (Homo sapiens, UniProt P17752); construct: cloning full length human TPH1 cDNA in to a bacterial pMAL-c5E expression vector; made in house; host or cells: E. coli BL21 (DE3); experiment: TPH1 in vitro inhibition assay (kinetic fluorescence); assay type: biochemical; details: read-out: TPH1 Range (TPH1 inhibition IC50)
Sequence (P17752 whole entry): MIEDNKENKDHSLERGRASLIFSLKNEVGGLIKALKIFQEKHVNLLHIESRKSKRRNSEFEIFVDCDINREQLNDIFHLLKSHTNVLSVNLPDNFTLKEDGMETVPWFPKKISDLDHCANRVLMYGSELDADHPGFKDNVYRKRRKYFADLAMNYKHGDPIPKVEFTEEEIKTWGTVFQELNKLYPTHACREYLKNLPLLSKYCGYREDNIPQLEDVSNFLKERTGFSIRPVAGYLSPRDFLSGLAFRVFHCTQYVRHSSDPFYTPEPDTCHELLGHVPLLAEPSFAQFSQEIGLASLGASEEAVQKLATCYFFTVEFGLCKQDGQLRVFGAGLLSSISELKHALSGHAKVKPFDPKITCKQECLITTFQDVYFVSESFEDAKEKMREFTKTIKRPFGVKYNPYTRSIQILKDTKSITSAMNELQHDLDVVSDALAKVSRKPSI

For COc1ncc(-c2ccc([C@@H](Oc3cc(N4CCC5(CC4)CN[C@H](C(=O)O)C5)nc(C)n3)C(F)(F)F)c(-n3ccc(C)n3)c2)cn1 [Example 29g] the compound record lists IC50 as < 50 nM

For CS(=O)(=O)c1cccc(-c2cc(-c3ccc4ncccc4c3)ccc2[C@@H](Oc2cc(N3CCC4(CC3)CN[C@H](C(=O)O)C4)nc(N)n2)C(F)(F)F)c1 [Example 52b] the compound record lists IC50 as < 50 nM

For Nc1nc(O[C@H](c2ccccc2-c2cccc(F)c2)C(F)(F)F)cc(N2CCC3(CC2)CN[C@H](C(=O)O)C3)n1 [Example 42b] the compound record lists IC50 as 50 to 300 nM

For Nc1nc(O[C@H](c2ccc(Cl)cc2-c2ccc(F)cc2)C(F)(F)F)cc(N2CCC3(CC2)CN[C@H](C(=O)O)C3)n1 [Example 34bv] the compound record lists IC50 as 50 to 300 nM

For Nc1nc(O[C@H](c2ccc(Cl)cc2-c2cccc(CO)c2)C(F)(F)F)cc(N2CCC3(CC2)CN[C@H](C(=O)O)C3)n1 [Example 34m] the compound record lists IC50 as 50 to 300 nM

For CC(C)Oc1ccc(-c2cc(Cl)ccc2[C@@H](Oc2cc(N3CCC4(CC3)CN[C@H](C(=O)O)C4)nc(N)n2)C(F)(F)F)cc1Cl [Example 34ak] the compound record lists IC50 as 50 to 300 nM

For CC(C)Oc1ccc(-c2ccc([C@@H](Oc3cc(N4CCC5(CC4)CN[C@H](C(=O)O)C5)nc(N)n3)C(F)(F)F)c(N3CCNCC3)c2)cc1 [Example 36e] the compound record lists IC50 as 300 to 3000 nM

For CN(C)C(=O)c1cccc(-c2cc(Cl)ccc2[C@@H](Oc2cc(N3CCC4(CC3)CN[C@H](C(=O)O)C4)nc(N)n2)C(F)(F)F)c1 [Example 34cn] the compound record lists IC50 as 50 to 300 nM

For CSc1ccc(-c2ccc([C@@H](Oc3cc(N4CCC5(CC4)CN[C@H](C(=O)O)C5)nc(N)n3)C(F)(F)F)c(-n3ccc(C)n3)c2)cc1 [Example 1b] the compound record lists IC50 as < 50 nM

For Cc1cn(C)c2ccc(-c3ccc([C@@H](Oc4cc(N5CCC6(CC5)CN[C@H](C(=O)O)C6)nc(N)n4)C(F)(F)F)cc3)cc12 [Example 55y] the compound record lists IC50 as 50 to 300 nM

For CCOc1ccc(-c2ccc([C@@H](Oc3cc(N4CCC5(CC4)CN[C@H](C(=O)O)C5)nc(N)n3)C(F)(F)F)c(-n3ccc(C)n3)c2)cc1Cl [Example 1al] the compound record lists IC50 as < 50 nM

For Cc1cc(C)cc(-c2ccc([C@@H](Oc3cc(N4CCC5(CC4)CN[C@H](C(=O)O)C5)nc(N)n3)C(F)(F)F)c(-n3ccc(C)n3)c2)c1 [Example 1at] the compound record lists IC50 as < 50 nM

For Cc1cc(Cl)cc(-c2cc(Cl)ccc2[C@@H](Oc2cc(N3CCC4(CC3)CN[C@H](C(=O)O)C4)nc(N)n2)C(F)(F)F)c1 [Example 34be] the compound record lists IC50 as < 50 nM

For CCOC(=O)c1cccc(-c2ccc([C@@H](Oc3cc(N4CCC5(CC4)CN[C@H](C(=O)O)C5)nc(C)n3)C(F)(F)F)c(-n3ccc(C)n3)c2)c1 [Example 29e] the compound record lists IC50 as 50 to 300 nM

For CCCc1ccc([C@@H](Oc2cc(N3CCC4(CC3)CN[C@H](C(=O)O)C4)nc(N)n2)C(F)(F)F)c(-c2cccc(S(C)(=O)=O)c2)c1 [Example 54a] the compound record lists IC50 as < 50 nM

For Cc1ccn(-c2cc(-c3ccc(C(=O)N4CCNCC4)cc3)ccc2[C@@H](Oc2cc(N3CCC4(CC3)CN[C@H](C(=O)O)C4)nc(N)n2)C(F)(F)F)n1 [Example 1cj] the compound record lists IC50 as < 50 nM

For COC(=O)c1cccc(-c2ccc([C@@H](Oc3cc(N4CCC5(CC4)CN[C@H](C(=O)O)C5)nc(C)n3)C(F)(F)F)c(-n3ccc(C)n3)c2)c1 [Example 29u] the compound record lists IC50 as 50 to 300 nM

For CC(C)Oc1ccc(-c2ccc([C@@H](Oc3cc(N4CCC5(CC4)CN[C@H](C(=O)O)C5)nc(N)n3)C(F)(F)F)c(-c3ccccc3)c2)cc1 [Example 54b] the compound record lists IC50 as 50 to 300 nM

For Nc1nc(O[C@H](c2ccc(Cl)cc2-c2ccc(F)c(Cl)c2)C(F)(F)F)cc(N2CCC3(CC2)CN[C@H](C(=O)O)C3)n1 [Example 34av] the compound record lists IC50 as < 50 nM

For Cc1ccn(-c2cc(-c3cc(C(F)(F)F)cc(C(F)(F)F)c3)ccc2[C@@H](Oc2cc(N3CCC4(CC3)CN[C@H](C(=O)O)C4)nc(N)n2)C(F)(F)F)n1 [Example 1bf] the compound record lists IC50 as 50 to 300 nM

For CCCc1ccc(-n2ccc(C)n2)c([C@@H](Oc2cc(N3CCC4(CC3)CN[C@H](C(=O)O)C4)nc(N)n2)C(F)(F)F)c1 [Example 22b] the compound record lists IC50 as < 50 nM

For Cc1ccn(-c2cc(-c3ccc(C)c(F)c3)ccc2[C@@H](Oc2cc(N3CCC4(CC3)CN[C@H](C(=O)O)C4)nc(N)n2)C(F)(F)F)n1 [Example 1aq] the compound record lists IC50 as 50 to 300 nM

For CS(=O)(=O)c1ccc(-c2ccc([C@@H](Oc3cc(N4CCC5(CC4)CN[C@H](C(=O)O)C5)nc(N)n3)C(F)(F)F)cc2)cc1 [Example 55cv] the compound record lists IC50 as 300 to 3000 nM
